This collection of values is drawn from ChEMBL document CHEMBL1142689.

- ASSAY_DETAILS: Area under concentration time curve in plasma of mice following peroral administration at 10 mg/kg; n=3
- Type: ADME, organism-based
- Design: dose 10 mg/kg, route oral
- CONDITION_DETAILS: mouse, in vivo, po
Give log10 of AUC for every item shown.
// do not treat as linear: log10 of AUC, unit µg/h/g

Before answering, review these 4 worked examples.
MOL_SMILES	REPORTED_RESULT
O=C(Cc1ccc(OCc2ccccc2)cc1)Nc1cccc2c1cnn2CCN1CCCC1	-0.21
O=C(Cc1ccc(OCc2ccccc2)cc1)Nc1ccc2ncn(CCN3CCCC3)c2c1	-0.03
O=C(Cc1ccc(OCc2ccccc2)cc1)Nc1cccc2nn(CCN3CCCC3)cc12	0.32
O=C(Cc1ccc(OCc2ccccc2)cc1)Nc1ccc2c(cnn2CCN2CCCC2)c1	0.93

Task: Report log10 of AUC for O=C(Cc1ccc(OCc2ccccc2)cc1)Nc1ccc2cnn(CCN3CCCC3)c2c1 please.
Output: 0.33
